- assay-summary: Double-Sink PAMPA permeability with and without excipients
- measurement-setup: 3 mM NaTC (second value)
Assignment: determine reported MW*/MW for the given compounds.
Respond with the number and no other words.

Asked: I would be grateful if you could share the reported MW*/MW for OCCN(CCO)c1nc(N2CCCCC2)c2nc(N(CCO)CCO)nc(N3CCCCC3)c2n1 [dipyridamole] .
Given back: 1

Asked: Endpoint output: MW*/MW of CCCCN(CCCC)CCCOC(=O)c1ccc(N)cc1 [butacaine] . Value?
Given back: 2

Asked: For the compound shown here, Clc1ccccc1C(c1ccccc1)(c1ccccc1)n1ccnc1 [clotrimazole] , give the reported MW*/MW.
Given back: 5

Asked: MW*/MW for COc1ccc(CCN2CCC(Nc3nc4ccccc4n3Cc3ccc(F)cc3)CC2)cc1 [astemizole] ?
Given back: 5

Asked: Fill in the blank: the reported MW*/MW of Cc1cccc(Nc2ccccc2C(=O)O)c1C [mefenamic acid] is ____.
Given back: 3
